test: Solubility of the compound at pH 7.4; type: physicochemical; conditions: buffer
property_label: log10(solubility) (log10 of the value in µM)
Heads up, the numbers here are log10 of solubility in µM units.

[
  {
    "compound": "Cc1cc(C)cc(-c2nnc(N)s2)c1",
    "log10(solubility)": 2.60
  },
  {
    "compound": "Nc1nnc(CCC(=O)c2ccc(Cl)cc2)s1",
    "log10(solubility)": 2.32
  },
  {
    "compound": "Nc1nnc(-c2cccc(NS(=O)(=O)c3ccc([N+](=O)[O-])cc3)c2)s1",
    "log10(solubility)": 1.28
  },
  {
    "compound": "Nc1nnc([C@@H](O)c2ccccc2)s1",
    "log10(solubility)": 3.57
  },
  {
    "compound": "Nc1nnc(CC2NC(=O)NC2=O)s1 (stereo unspecified)",
    "log10(solubility)": 4.94
  }
]

Query compound follows.
Qu. Could you please provide reported log10(solubility) for Nc1nnc(-c2ccncc2)s1 ? Thanks!
Ans. 4.11
